These compounds were tested on UniProtKB Q9YQ12; log10(Ki) is the recorded read-out.
Sequence (Q9YQ12 whole entry): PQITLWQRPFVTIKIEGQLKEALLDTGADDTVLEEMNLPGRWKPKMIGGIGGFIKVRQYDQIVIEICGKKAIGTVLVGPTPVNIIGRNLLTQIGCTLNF
OUTCOME MEASURE: log10(Ki) (log10 of the value in nM)

[[record]]
smiles_code = "COc1ccc(S(=O)(=O)N(CC(C)C)C[C@@H](O)[C@H](Cc2ccccc2)NC(=O)O[C@@H]2C[C@@H]3C(=O)CO[C@@H]3C2)cc1"
observed_measurement = -0.02

[[record]]
smiles_code = "COc1ccc(S(=O)(=O)N(CC(C)C)C[C@@H](O)[C@H](Cc2ccccc2)NC(=O)O[C@@H]2C[C@@H]3[C@H](N(C)C)CO[C@@H]3C2)cc1"
observed_measurement = 1.10

[[record]]
smiles_code = "COc1ccc(S(=O)(=O)N(CC(C)C)C[C@@H](O)[C@H](Cc2ccccc2)NC(=O)O[C@@H]2C[C@@H]3[C@@H](OC)CO[C@@H]3C2)cc1"
observed_measurement = -2.22

[[record]]
smiles_code = "CC(C)CN(C[C@@H](O)[C@H](Cc1ccccc1)NC(=O)O[C@@H]1C[C@@H]2[C@H](O)CO[C@@H]2C1)S(=O)(=O)c1ccc(N)cc1"
observed_measurement = -1.10

[[record]]
smiles_code = "COc1ccc(S(=O)(=O)N(CC(C)C)C[C@@H](O)[C@H](Cc2ccccc2)NC(=O)O[C@@H]2C[C@@H]3[C@@H](C)CO[C@@H]3C2)cc1"
observed_measurement = -1.77

[[record]]
smiles_code = "COc1ccc(S(=O)(=O)N(CC(C)C)C[C@@H](O)[C@H](Cc2ccccc2)NC(=O)O[C@@H]2C[C@@H]3[C@H](O)CO[C@@H]3C2)cc1"
observed_measurement = -1.11

[[record]]
smiles_code = "COc1ccc(S(=O)(=O)N(CC(C)C)C[C@@H](O)[C@H](Cc2ccccc2)NC(=O)O[C@@H]2C[C@@H]3[C@H](C)CO[C@@H]3C2)cc1"
observed_measurement = -0.80

[[record]]
smiles_code = "COc1ccc(S(=O)(=O)N(CC(C)C)C[C@@H](O)[C@H](Cc2ccccc2)NC(=O)O[C@@H]2C[C@@H]3[C@H](OC)CO[C@@H]3C2)cc1"
observed_measurement = -0.41

[[record]]
smiles_code = "CC(C)CN(C[C@@H](O)[C@H](Cc1ccccc1)NC(=O)O[C@@H]1C[C@@H]2[C@@H](O)CO[C@@H]2C1)S(=O)(=O)c1ccc(N)cc1"
observed_measurement = -2.22

